Experiment: Preventing trimethylamine odor by addition of compounds before heating ergothioneine with sodium hydroxide
Assay type: physicochemical
Settings: test sample 0.2%; 0.1N NaOH, boiled 10 minutes; HPLC
Experimental: Samples were prepared in glass tubes with screw caps with about 0.05% (w/v) ergothioneine in water, a test sample, at the indicated concentration, and 0.1N NaOH (except for the first tube, in which NaOH was omitted as a negative control). The pH of each sample was determined by litmus paper, and then the tubes capped and placed in a boiling water bath for 10 minutes. […]
ENDPOINT: % EGT (w/v)

Exam item: Dear colleague, please send me the reported % EGT (w/v) for `O=P(O)(O)O` when you can.
Marked response: 0.058 % (w/v)

Exam item: Dear colleague, please send me the reported % EGT (w/v) for `OB(O)O` when you can.
Marked response: 0.052 % (w/v)

Exam item: Dear colleague, please send me the reported % EGT (w/v) for O=S([O-])S(=O)(=O)[O-].[Na+].[Na+] [sodium metabisulfite] when you can.
Marked response: 0.029 % (w/v)

Exam item: Dear colleague, please send me the reported % EGT (w/v) for `O=C(O)CC(O)(CC(=O)O)C(=O)O` when you can.
Marked response: 0.054 % (w/v)

Exam item: Dear colleague, please send me the reported % EGT (w/v) for `CC(=O)O` when you can.
Marked response: 0.052 % (w/v)

Turning now to a further molecule:
Exam item: Dear colleague, please send me the reported % EGT (w/v) for `O=C1O[C@H]([C@@H](O)CO)C(O)=C1O` when you can.
Marked response: 0.047 % (w/v)

Source listed as patent US8933245B2.
